Data credit: PubChem BioAssay (NCI)

- protocol-notes: NCI Yeast Anticancer Drug Screen. Data for the mlh1 rad18 strain (AID 175)
- cond: S. cerevisiae mlh1 rad18 strain growth inhibition; at 50.0 µM; stronger effect = higher value
The panel holds about 79,000 compounds, 15% with a hit somewhere; the sample as a whole holds those more often.
parameter: growth inhibition (%)
Please respond with the number in % and leave the unit unwritten.

Consider the worked cases shown below.
molecule	growth inhibition, %
CCN(CCO)CC(O)Cn1cnc2c(N)ncnc21 (centres undefined) (tested in a mixture with another compound)	17.4
CC(C)=CCc1c(O)ccc(C(=O)C2C(c3c(O)cc(-c4cc5ccc(O)cc5o4)cc3O)C=C(C)CC2c2ccc(O)cc2O)c1O (centres undefined)	87.9
Cc1ccc(OCC(O)CN2CCN(c3ccc(C)cc3)CC2)cc1 (centres undefined)	0.05
O=C1C(=O)C(c2ccccc2)S(=O)(=O)C1c1ccccc1 (centres undefined)	14.6
OC1[C@H](O)CN(OCc2ccccc2)C[C@@H]1O (some centres undefined)	-18.4
O=C(Nc1ccc(Cl)c(C(F)(F)F)c1)C(=O)c1c(O)c2ccccc2oc1=O	5.3
Cc1ccc(C(=O)/C=C/c2ccc3c(c2)OCO3)c(C)c1	33.3
NC(=S)N/C=C(/c1ccc(Cl)cc1Cl)S(=O)(=O)Cc1ccc(Cl)cc1Cl	9.7

// moving on: another record for growth inhibition
Request the reported growth inhibition associated with Cc1ccc([N+](=O)[O-])cc1S(=O)(=O)O
2.45
